Just for reference, patent US20250381165A1 is where these values come from.

Test system: DC2.4
Assay: CellTiter-Glo cell viability, DC2.4
Assay type: cell-based, murine
Conditions: Mus musculus; DC2.4; CellTiter-Glo
MEASURED_METRIC: pIC50
Would you please state pIC50, meaning minus log10 of the concentration in mol/L, as a bare number?

INPUT: # query: pIC50 | item O=C(O)/C=C/c1ccc2occc2c1 | system: DC2.4
OUTPUT: 2.94

###

System: IMG
Experiment: CellTiter-Glo cell viability, IMG
Assay type: cell-based, murine
Conditions: Mus musculus
MEASURED_METRIC: IC50 (µM)
Your answer is read as µM, so omit the unit and give the number.

INPUT: For the molecule O=C(O)/C=C/c1ccc2occc2c1 , what IC50 is on record?
OUTPUT: 316

###

Test: Solubility in alkaline water
Type: physicochemical
Conditions: pH 10, aqueous buffer, read-out: limit to the solubility in alkaline water (converted)
MEASURED_METRIC: solubility (mg/mL)
# output: bare number, implied unit mg/mL

INPUT: Reported solubility for O=C(O)/C=C/c1ccc2occc2c1 [BzFβ] : what is it?
OUTPUT: 20

###

System: freshly isolated murine splenocytes
Test: CellTiter-Glo cell viability, primary splenocytes
Type: cell-based
Conditions: Mus musculus, Splenocyte; freshly isolated murine splenocytes; CellTiter-Glo
Protocol: BzFβ was then examined for its effect on the viability of several murine and human cell lines and primary murine splenocytes. The cytotoxicity of BzFβ was assessed using the CellTiter-Glo […] assay system according to manufacturer's instructions to determine BzFβ's effect on the viability of several murine and human cell lines and primary murine splenocytes. […]
MEASURED_METRIC: pIC50
Reminder that pIC50 means the negative base-10 logarithm of the concentration expressed in mol/L.

INPUT: What is its pIC50 for freshly isolated murine splenocytes? Entry: O=C(O)/C=C/c1ccc2occc2c1 [BzFβ]
OUTPUT: 3.40
